Hi there, I'd appreciate the recorded RBC for every entry that follows.
- Run conditions: mouse, in vivo, sc, 50 mg/kg
e = 2'-O-(2-methoxyethyl) (MOE); d = 2'-deoxy (DNA)

query: Suppose we examine the substance ISIS 416851: MOE gapmer, nucleobases 1275 to 1318 of SEQ ID NO: 1 (Table 8) (antisense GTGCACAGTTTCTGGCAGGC; MOE gapmer, wing and gap sizes not given here) ; what RBC value has been reported?
result: 9 10^6/μL

query: Suppose we examine the substance ISIS 412225: 5-10-5 MOE gapmer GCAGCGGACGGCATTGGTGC (sugars from the 5' end e5 d10 e5, backbone and methylation of C not given here) ; what RBC value has been reported?
result: 9 10^6/μL

query: Suppose we examine the substance ISIS 416862: MOE gapmer, nucleobases 1275 to 1318 of SEQ ID NO: 1 (Table 8) (antisense AGCGGACGGCATTGGTGCAC; MOE gapmer, wing and gap sizes not given here) ; what RBC value has been reported?
result: 9 10^6/μL

query: Suppose we examine the substance ISIS 416848: MOE gapmer, nucleobases 1275 to 1318 of SEQ ID NO: 1 (Table 8) (antisense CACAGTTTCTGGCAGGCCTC; MOE gapmer, wing and gap sizes not given here) ; what RBC value has been reported?
result: 9 10^6/μL

query: Suppose we examine the substance ISIS 416856: MOE gapmer, nucleobases 1275 to 1318 of SEQ ID NO: 1 (Table 8) (antisense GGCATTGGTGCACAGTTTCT; MOE gapmer, wing and gap sizes not given here) ; what RBC value has been reported?
result: 9 10^6/μL

query: Suppose we examine the substance ISIS 416858: MOE gapmer, nucleobases 1275 to 1318 of SEQ ID NO: 1 (Table 8) (antisense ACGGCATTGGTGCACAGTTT; MOE gapmer, wing and gap sizes not given here) ; what RBC value has been reported?
result: 9 10^6/μL

query: Suppose we examine the substance ISIS 416864: MOE gapmer, nucleobases 1275 to 1318 of SEQ ID NO: 1 (Table 8) (antisense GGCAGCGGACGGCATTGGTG; MOE gapmer, wing and gap sizes not given here) ; what RBC value has been reported?
result: 10 10^6/μL

query: Suppose we examine the substance ISIS 416867: MOE gapmer, nucleobases 1275 to 1318 of SEQ ID NO: 1 (Table 8) (antisense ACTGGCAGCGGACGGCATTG; MOE gapmer, wing and gap sizes not given here) ; what RBC value has been reported?
result: 10 10^6/μL

query: Suppose we examine the substance ISIS 416852: MOE gapmer, nucleobases 1275 to 1318 of SEQ ID NO: 1 (Table 8) (antisense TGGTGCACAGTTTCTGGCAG; MOE gapmer, wing and gap sizes not given here) ; what RBC value has been reported?
result: 9 10^6/μL

The origin of these recorded values is patent US20230263822A1.
